Target: CYP3A4 (Homo sapiens, UniProt P08684)
Sequence (P08684 whole entry): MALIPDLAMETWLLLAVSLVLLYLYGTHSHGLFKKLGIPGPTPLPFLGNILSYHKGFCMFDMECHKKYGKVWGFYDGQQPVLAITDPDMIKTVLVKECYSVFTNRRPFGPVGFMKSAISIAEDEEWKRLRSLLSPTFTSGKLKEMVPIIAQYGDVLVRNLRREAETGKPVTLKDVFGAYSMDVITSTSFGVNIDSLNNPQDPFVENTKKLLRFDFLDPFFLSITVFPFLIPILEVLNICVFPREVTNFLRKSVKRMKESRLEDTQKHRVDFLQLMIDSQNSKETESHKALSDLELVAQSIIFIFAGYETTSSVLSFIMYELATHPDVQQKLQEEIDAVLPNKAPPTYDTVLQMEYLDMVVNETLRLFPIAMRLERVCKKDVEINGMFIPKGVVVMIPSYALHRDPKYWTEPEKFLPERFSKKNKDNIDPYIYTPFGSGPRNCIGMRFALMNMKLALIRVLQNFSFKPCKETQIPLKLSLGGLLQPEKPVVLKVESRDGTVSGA
Test: Inhibition of CYP3A4 in human liver microsomes using midazolam as substrate assessed as reduction in 1-OH-midazolam formation at 0.313 uM by LC/MS/MS analysis
Format: ADME
Conditions: probe midazolam
value_type: inhibition at 0.313 µM
Please answer using the number first and the unit second.

Q. Sample C[C@@H]1c2ncn(-c3ccc(F)cn3)c2CCN1C(=O)c1cccc(C(F)(F)F)c1Cl — what was its inhibition at 0.313 µM?
A. 20%

---

Test: Solubility of compound in phosphate buffer at pH 2 at room temperature after 3 days
value_type: solubility at 72 h

C[C@@H]1c2ncn(-c3ccc(F)cc3)c2CCN1C(=O)c1cccc(C(F)(F)F)c1Cl
165 µM

Can you give me solubility at 72 h for all of these, one by one?
1. C[C@@H]1c2ncn(-c3ccccn3)c2CCN1C(=O)c1cccc(C(F)(F)F)c1Cl
2. C[C@@H]1c2ncn(-c3ncc(F)cn3)c2CCN1C(=O)c1cccc(C(F)(F)F)c1Cl
3. C[C@@H]1c2ncn(-c3ccc(F)cn3)c2CCN1C(=O)c1cccc(C(F)(F)F)c1Cl

A.
> 400 µM
> 400 µM
> 400 µM
